Origin of the recorded values: patent US20120277143A1

Please go through the items and note down their IC50.
Molecular target: T1, human IL4 (human, UniProt P05112 25-153, biotinylated in the SPR and competition assays (sites not given))
T1 construct: Peprotech #200-04, mature protein produced in E. coli; also called hIL4; Interleukin 4
T1 sequence: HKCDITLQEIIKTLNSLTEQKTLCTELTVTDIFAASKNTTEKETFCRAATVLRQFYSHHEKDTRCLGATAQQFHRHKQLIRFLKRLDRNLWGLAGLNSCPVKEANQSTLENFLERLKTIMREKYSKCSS
Experiment: Luminex competition, 67 pM biotin-IL4 binding to IL4RA-Fc beads

>>> data_value("C06_26H2 (designed binder, ankyrin repeat protein; His-tagged, IMAC-purified) DLGKKLLEAARAGQDDEVRILMANGADVNAYDSSGDTPLHVAAIDGHLEIVEVLLKHGADVNASDASGDTPLHLAADFGHLKIVEVLLKHGADVNAEDMIGITPLHLAAYNGHLEIVEVLLKNGADVNASDVHGFTPLHLAAFIGHLGIVEVLLKYDADVNAQDKFGKTAFDISIDNRNEDLAEILQKLN")
"0.0314 nM"

Provide each entry's IC50 from the list below.
1. C06_28E5 (designed binder, ankyrin repeat protein; His-tagged, IMAC-purified; also called benchmark AR protein) DLGKKLLEAARAGQDDEVRILMANGADVNAADDSGITPLHLAAEDGHLEIVEVLLKYGADVNAQDNLGDTPLHLAAWTGHLEIVEVLLKNGADVNAYDISGITPLHLAAFYGHLEIVEVLLKHGADVNAQDKFGKTAFDISIDNGNEDLAEILQKLN
2. C06_28D4 (designed binder, ankyrin repeat protein; His-tagged, IMAC-purified) DLGKELLEAASAGQDDEVHILMANGADVNAVDHDGFTPLHLAAADGHLEIVEVLLKHGADVNADDNFGWTPLHLAAFFGHLEIVEVLLKHGADVNAKDQTGLTPLHLAAVDGHLEIVEVLLKNGADVNAQDKFGKTAFDISIDNGNEDLAEILQKLN
3. C06_43G2 (designed binder, ankyrin repeat protein; His-tagged, IMAC-purified) DLGKKLLEAARAGQDDEVRILMANGADVNAKDVTGETPLHLASWEGHLEIVEVLLKHGADVNAQDLFGITPLHLAAATDGHLEIVEVLLKNGADVNATDSNGFTPLHLAASYGHLEIVDVLLKNGADVNAHDFDGFTPLHLAASWGHLEIVEVLLKYGADVNAQDKFGKTAFDISIDNGNEDLAEILQKLN
4. C06_17A11 (designed binder, ankyrin repeat protein; His-tagged, IMAC-purified) DLGKKLLEAARAGQDDEVRILMANGADVNAIDEWGDTPLHLAAIEGHLEIVEVLLKYGADVNASDAMGMTPLHLAAVYGYLEIVEVLLKNGADVNAMDFSGFTPLHLAAFSGHLEIVEVLLKYGADVNAQDKFGKTAFDISIDNGNEDLAEILQKLN
5. C06_53E9 (designed binder, ankyrin repeat protein; His-tagged, IMAC-purified) DLGKELLEAASAGQDDEVHILMANGADVNASDKDGSTPLHLAAVYGHLEIVEVLLKYGADVNAEDMNGYTPLHLAAADGHLEIVEVLLKYGADVDAKDRTGWTPLHLAGEFGHLEIVEVLLKYGADVNAQDKFGKTAFDISIDNGNEDLAEILQKLN

["0.0102 nM", "0.0353 nM", "0.0235 nM", "0.0744 nM", "0.0178 nM"]

Look up and report measured IC50 for this entry: C06_24H1 (designed binder, ankyrin repeat protein; His-tagged, IMAC-purified) DLGKKLLEAARAGQDDEVRILMANGADVNAHDNSGFTPLHLAAEIGHLEIVEVLLKYGADVNAADRMGDTPLHLAAFVGHLEIVEVLLKYGADVNAVDLAGVTPLHVAAFYGHLEIVEVLLKNGADVNAQDKFGKTAFDISIDNGNEDLAEILQKLN
0.0717 nM
